All values here come from ChEMBL document CHEMBL5608197.

Below is a list of entries, each paired with its recorded CC50 at 48 h value.
# experiment: Cytotoxicity against human HepG2 cells assessed as inhibition of cell growth incubated for 48 hrs by CellTiter-Glo luminescence assay
# Format: toxicity, cell-based

Guide cases for CC50 at 48 h, answers given:
{"moleculeSmiles": "Cc1nn(C(C)(C)C)c2nc(C3CC3)cc(C(=O)N3CCOc4cc(F)ccc43)c12", "CC50 at 48 h": "> 10 µM"}
{"moleculeSmiles": "Cc1nn(-c2ccccc2)c2nc(C3CC3)cc(C(=O)N3CCOc4ccccc43)c12", "CC50 at 48 h": "> 40 µM"}
{"moleculeSmiles": "CC(C)c1nn(C(C)(C)C)c2nc(C3CC3)cc(C(=O)N3CCOc4ccccc43)c12", "CC50 at 48 h": "> 40 µM"}
{"moleculeSmiles": "CC(C)(C)n1ncc2c(C(=O)N3CCOc4ccccc43)cc(C3CC3)nc21", "CC50 at 48 h": "> 40 µM"}
{"moleculeSmiles": "COc1nn(C(C)(C)C)c2nc(C3CC3)cc(C(=O)N3CCOc4ccccc43)c12", "CC50 at 48 h": "> 40 µM"}

Exercise: Need CC50 at 48 h, item Cc1nn(C(C)(C)C)c2nc(C3CC3)cc(C(=O)N3CCOc4ncccc43)c12
Key: > 10 µM

* * *

# studySystem: CYP2C19 (Homo sapiens, UniProt P33261)
# Sequence (P33261 whole entry): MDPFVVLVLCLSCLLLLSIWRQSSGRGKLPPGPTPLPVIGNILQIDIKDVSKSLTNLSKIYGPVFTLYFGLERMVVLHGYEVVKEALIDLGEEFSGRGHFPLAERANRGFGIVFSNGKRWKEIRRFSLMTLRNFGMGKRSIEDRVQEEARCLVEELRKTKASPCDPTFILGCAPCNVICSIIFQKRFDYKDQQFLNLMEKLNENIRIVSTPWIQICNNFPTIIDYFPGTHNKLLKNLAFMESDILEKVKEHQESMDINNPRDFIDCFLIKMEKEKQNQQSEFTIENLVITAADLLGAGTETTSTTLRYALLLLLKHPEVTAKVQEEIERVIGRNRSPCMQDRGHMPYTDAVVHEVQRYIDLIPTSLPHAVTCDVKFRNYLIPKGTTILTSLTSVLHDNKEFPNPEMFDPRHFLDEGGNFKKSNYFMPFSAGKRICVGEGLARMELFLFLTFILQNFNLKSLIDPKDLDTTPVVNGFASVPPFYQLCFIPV
# experiment: Inhibition of CYP2C19 (unknown origin) at 1 uM relative to control
# Type: ADME
experimentalReadout: inhibition at 1 µM
Give the figure together with its unit, number first.

Exercise: Give its inhibition at 1 µM value. Item: Cc1nn(C(C)(C)C)c2nc(C3CC3)cc(C(=O)N3CCOc4ccncc43)c12
Key: 3.6%

* * *

# experiment: Cytotoxicity against human HepG2 cells assessed as inhibition of cell growth incubated for 48 hrs by CellTiter-Glo luminescence assay
# Assay type: toxicity, cell-based
experimentalReadout: CC50 at 48 h

{"moleculeSmiles": "CC(C)(C)n1nc(Br)c2c(C(=O)N3CCOc4ccccc43)cc(C3CC3)nc21", "CC50 at 48 h": "> 40 µM"}
{"moleculeSmiles": "Cc1cc(C)c(NC(=O)c2cc(C)nc3c2c(C)nn3C)c(Cl)c1", "CC50 at 48 h": "> 40 µM"}
{"moleculeSmiles": "COc1ccccc1N(C)C(=O)c1cc(C2CC2)nc2c1c(C)nn2C(C)(C)C", "CC50 at 48 h": "> 10 µM"}
{"moleculeSmiles": "Cc1nn(C(C)(C)C)c2nc(C3CC3)cc(C(=O)Nc3ccccc3)c12", "CC50 at 48 h": "> 10 µM"}
{"moleculeSmiles": "Cc1nn(C(C)(C)C)c2nc(-c3ccccc3)cc(C(=O)N3CCOc4ccccc43)c12", "CC50 at 48 h": "> 40 µM"}
{"moleculeSmiles": "Cc1nn(C(C)(C)C)c2nc(C3CC3)cc(C(=O)N3CCCc4ccccc43)c12", "CC50 at 48 h": "> 40 µM"}
{"moleculeSmiles": "Cc1nn(C(C)(C)C)c2nc(C(C)C)cc(C(=O)N3CCOc4ccccc43)c12", "CC50 at 48 h": "> 40 µM"}
{"moleculeSmiles": "Cc1nn(C(C)(C)C)c2nc(C3CC3)cc(C(=O)N3CCN(C)CC3)c12", "CC50 at 48 h": "> 40 µM"}

Exercise: Consider the molecule shown here: CC(C)(C)n1nc(Cl)c2c(C(=O)N3CCOc4ccccc43)cc(C3CC3)nc21 What is its recorded CC50 at 48 h?
Key: > 40 µM

Exercise: Entry to check: Cc1nn(C(C)(C)C)c2nc(C3CC3)cc(C(=O)N3CCOc4ccc(F)cc43)c12
Key: 9.67 µM

Exercise: Could you do the same for Cc1nn(C(C)(C)C)c2nc(C3CC3)cc(C(=O)N3CCOc4ccncc43)c12 , please?
Key: 4.81 µM

Exercise: Another molecule to check: COc1nn(C(C)(C)C)c2nc(C3CC3)cc(C(=O)N3CCOc4ccncc43)c12
Key: 7.26 µM

Exercise: Same question for Cc1cc(C)c(NC(=O)c2cc(C3CC3)nc3c2c(C)nn3C(C)(C)C)c(Cl)c1 please.
Key: > 40 µM

Exercise: Now give it for COc1cc(C(=O)N2CCOc3ccccc32)c2c(C)nn(C(C)(C)C)c2n1 too.
Key: > 40 µM

Exercise: Try this molecule next: Cc1nn(C(C)(C)C)c2nc(C3CC3)cc(C(=O)N3CCc4ccccc43)c12
Key: > 40 µM

Exercise: Same lookup for CCc1nn(C(C)(C)C)c2nc(C3CC3)cc(C(=O)N3CCOc4ccccc43)c12 , please.
Key: > 10 µM

Exercise: Please do the same for CC(C)(C)n1nc(C2CC2)c2c(C(=O)N3CCOc4ccccc43)cc(C3CC3)nc21 as well.
Key: > 10 µM

Exercise: Param item: Cc1nn(C(C)C)c2nc(C3CC3)cc(C(=O)N3CCOc4ccncc43)c12
Key: 17.6 µM

Exercise: Entry to check: COc1ccccc1NC(=O)c1cc(C2CC2)nc2c1c(C)nn2C(C)(C)C
Key: > 40 µM

Exercise: What about this molecule? CC(C)(C)n1nc(-c2ccccc2)c2c(C(=O)N3CCOc4ccccc43)cc(C3CC3)nc21
Key: > 40 µM
